Cited source: paper PMC8958504

Experiment: in vitro
Format: in vitro ADME
Settings: porcine brain lipid, PBS/EtOH (70:30), 240 min, 25 °C
test-readout: PAMPA-BBB (Pe, 10^–6 cm s^–1)

* C#CCn1nc(/C=C/c2cccc(OC)c2)oc1=O | 7.5 ± 0.3 10^–6 cm s^–1
* O=c1[nH]nc(/C=C/c2cccc(O)c2)o1 | ≤ 0.5 10^–6 cm s^–1
* C#CCNC(=O)/C=C/c1cccc(OC)c1 | 4.1 ± 0.2 10^–6 cm s^–1
* COc1cccc(/C=C/c2n[nH]c(=O)o2)c1 | 4.6 ± 0.2 10^–6 cm s^–1
* C#CCn1nc(/C=C/c2ccccc2)oc1=O | 13.6 ± 0.5 10^–6 cm s^–1
* C#CCNC(=O)/C=C/c1ccc(O)c(OC)c1 | ≤ 0.5 10^–6 cm s^–1
* COc1ccc(/C=C/c2n[nH]c(=O)o2)c(OC)c1 | 3.6 ± 0.2 10^–6 cm s^–1

API: the following record is the query input.
Give reported PAMPA-BBB (Pe, 10^–6 cm s^–1) value for O=c1[nH]nc(/C=C/c2cc(O)cc(O)c2)o1
≤ 0.1 10^–6 cm s^–1
